STUDY SYSTEM: Heat shock factor protein 1 (Mus musculus, UniProt P38532)
Sequence (P38532 whole entry): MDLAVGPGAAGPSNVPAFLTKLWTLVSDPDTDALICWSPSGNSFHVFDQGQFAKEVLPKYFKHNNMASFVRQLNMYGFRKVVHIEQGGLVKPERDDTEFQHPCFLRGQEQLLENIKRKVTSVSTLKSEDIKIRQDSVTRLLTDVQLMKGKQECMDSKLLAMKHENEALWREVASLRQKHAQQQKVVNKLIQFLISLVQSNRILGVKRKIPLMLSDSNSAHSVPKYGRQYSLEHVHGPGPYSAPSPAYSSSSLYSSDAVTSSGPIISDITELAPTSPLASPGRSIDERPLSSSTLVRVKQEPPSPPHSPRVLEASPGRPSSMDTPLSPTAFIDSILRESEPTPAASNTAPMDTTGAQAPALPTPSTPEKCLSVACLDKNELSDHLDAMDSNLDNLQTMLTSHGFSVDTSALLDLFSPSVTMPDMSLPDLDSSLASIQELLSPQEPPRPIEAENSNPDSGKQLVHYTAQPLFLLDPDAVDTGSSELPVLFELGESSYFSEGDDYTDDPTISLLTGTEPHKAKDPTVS
EXPERIMENT: enhancement of HSF1-driven luciferase signal – cell-based, NIH3T3, luminescence, dose retest, confirmation (AID 435004);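 further: stress induced by proteasome inhibitor MG132 added 30 min after compound; luciferase reporter driven by HSF1 response element in NIH3T3 cells; actives raise luminescence as potentiators of the MG132 stress response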
Format: functional
Calls of active or inactive are those of the source.
RESULT TYPE: EC50

Look over these answered cases.
{"COMPOUND": "COc1ccc(-c2[nH]ncc2CN2CCN(C3CCCCC3)C(=O)C2)cc1F", "EC50": "216 µM (active)"}
{"COMPOUND": "Clc1ccccc1CN(Cc1ccco1)Cc1nnnn1C1CCCC1", "EC50": "> 260 µM (inactive)"}
{"COMPOUND": "[O-][S+](Cc1cc(Sc2ccccc2)nc(-c2ccccc2)n1)c1ccccc1 (configuration not stated)", "EC50": "> 260 µM (inactive)"}
{"COMPOUND": "N=C1S/C(=C\\c2ccc(-c3cccc(Cl)c3)o2)C(=O)N1c1nccs1", "EC50": "5.39 µM (active)"}
{"COMPOUND": "Cc1nc2ccccc2n1CC(O)COCC1CC=CCC1 (configuration not stated)", "EC50": "> 260 µM (inactive)"}
{"COMPOUND": "N#Cc1ncc(Cc2ccccc2)nc1C#N", "EC50": "18.1 µM (active)"}
{"COMPOUND": "Cc1cccc2cc3c(N)c(C(=O)N4CCOCC4)sc3nc12", "EC50": "> 260 µM (inactive)"}
{"COMPOUND": "CC(Cc1ccccc1)NCC(=O)Nc1cc(N(C)C)nc2ccccc12 (configuration not stated)", "EC50": "> 260 µM (inactive)"}

Hi, could you look up EC50 for each item in my list?
1. Cc1ccc2[nH]c3c(N4CCc5ccccc5C4)ncnc3c2c1
2. O=C(Nc1ccc(Nc2ccccc2)cc1)c1cc([N+](=O)[O-])ccc1Cl
3. O=S(=O)(c1ccc(Cl)c(Cl)c1)c1snnc1-c1ccccc1
4. COC(=O)[C@H](CCSC)NC(=O)Nc1cccc(C)c1C

["103 µM (active)", "5.63 µM (active)", "9.7 µM (active)", "> 260 µM (inactive)"]

###

STUDY SYSTEM: UniProt:P38532
EXPERIMENT: decrease of HSF1-responsive luciferase luminescence – cell-based, NIH3T3, dose retest, confirmation (AID 2382);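 further: NIH3T3 fibroblasts with HSF1-driven luciferase reporter stressed by proteasome inhibitor MG132; luminescence from HSF1-driven luciferase expression after 8 hours of MG132 stress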
Assay type: functional
Counter-ions that a name gives are not always drawn. Active and inactive are the calls of the source.
RESULT TYPE: EC50

The cases that follow already have their EC50 on record.
{"COMPOUND": "CC(C)c1ccc(NC(=O)Nc2cc3sccc3n2C)cc1", "STUDY SYSTEM": "UniProt:P38532", "EC50": "> 195 µM (not active)"}
{"COMPOUND": "COCCCC/C(=N\\OCCN)c1ccc(C(F)(F)F)cc1 [FLUVOXAMINE MALEATE]", "STUDY SYSTEM": "UniProt:P38532", "EC50": "> 195 µM (not active)"}
{"COMPOUND": "O=C(CC1C(=O)NCCN1Cc1ccccc1F)NC1CCCCCC1 (stereo not drawn)", "STUDY SYSTEM": "UniProt:P38532", "EC50": "24.1 µM (active)"}
{"COMPOUND": "O=C(O)c1cc(S(=O)(=O)Nc2ccc3c(c2)OCCO3)c(Cl)cc1Cl", "STUDY SYSTEM": "UniProt:P38532", "EC50": "2.54 µM (active)"}
{"COMPOUND": "CCOc1ccc(-n2c(C)c(C(C)=O)c3cc(OC(C)=O)ccc32)cc1", "STUDY SYSTEM": "UniProt:P38532", "EC50": "24.6 µM (active)"}

Kindly give each listed record's EC50.
1. CCOc1cc(C(c2c(C)n[nH]c2O)c2c(C)n[nH]c2O)cc(Br)c1OC
2. O=C(O)Cn1c(=O)c2c3c(sc2n(Cc2ccc(Cl)cc2Cl)c1=O)CCCC3

1: > 195 µM (not active); 2: > 195 µM (not active)

###

Would you kindly list AC50 for each of these compounds?
EXPERIMENT: non-specific 3'UTR reporter inhibition in Clone20-Shn3RL – cell-based, Renilla luciferase, cherry-picked, counter-screen for Shn3 inhibitor project, dose response (AID 624133)
Assay type: functional
The source made the active and inactive calls.

{"COMPOUND": "O=C(Nc1ccc2nc3n(c(=O)c2c1)CCCC3)c1cc([N+](=O)[O-])ccc1F", "RESULT": "21.8 µM (active)"}
{"COMPOUND": "C#CC(=O)N(c1ccc(OC)cc1OC)C(C(=O)NC1CCCC1)c1cccs1 (centres undefined)", "RESULT": "1.11 µM (active)"}
{"COMPOUND": "COC(=O)c1ccccc1NC(=O)c1nc(S(=O)(=O)Cc2ccccc2)ncc1Cl", "RESULT": "8.03 µM (active)"}

--- query ---
Using the record for CC(C)CCOc1cccc(OCC(=O)Nc2ccncc2)c1 , report its AC50.
2.72 µM (active)

###

STUDY SYSTEM: Adenosylmethionine-8-amino-7-oxononanoate aminotransferase (Mycobacterium tuberculosis, UniProt P9WQ81)
Sequence (P9WQ81 whole entry): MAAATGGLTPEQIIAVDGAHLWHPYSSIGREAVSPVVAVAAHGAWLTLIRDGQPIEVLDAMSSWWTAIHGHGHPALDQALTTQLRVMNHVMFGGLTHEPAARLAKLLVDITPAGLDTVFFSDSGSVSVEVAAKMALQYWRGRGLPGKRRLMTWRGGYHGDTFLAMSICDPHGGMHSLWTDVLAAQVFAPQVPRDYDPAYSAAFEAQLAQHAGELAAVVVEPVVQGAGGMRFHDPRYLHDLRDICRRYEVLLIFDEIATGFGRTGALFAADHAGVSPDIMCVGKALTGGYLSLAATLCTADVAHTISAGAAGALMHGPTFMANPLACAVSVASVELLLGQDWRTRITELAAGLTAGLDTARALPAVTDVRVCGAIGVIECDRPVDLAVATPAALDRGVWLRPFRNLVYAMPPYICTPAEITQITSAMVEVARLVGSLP
EXPERIMENT: Mycobacterium tuberculosis BioA enzyme inhibitor Measured in Biochemical System Using Plate Reader - 2163-02_Inhibitor_Dose_CherryPick_Activity.
Type: functional, Mycobacterium tuberculosis UT205
Activity calls are given as the source filed them.
Please respond with reported AC50 for every item in the list.

Guide cases for AC50, answers given:
{"COMPOUND": "CC1(C(=O)NCc2ccc(F)c(F)c2)Cc2c(-c3cccc(C(N)=O)c3)ccnc2O1 (centres undefined)", "AC50": "0.498 µM (active)"}
{"COMPOUND": "COc1ccc(C2c3c(-c4cc(Cl)c(C)cc4O)n[nH]c3C(=O)N2Cc2cccnc2)cc1OC (centres undefined)", "AC50": "0.102 µM (active)"}

Batch request: AC50 for each of the following compounds.
1. CCCN1CCN(C(=O)C2CCN(c3nnc(C)c4c(C)n(-c5ccc(C)cc5)nc34)CC2)CC1
2. O=C(C1CCCN(S(=O)(=O)c2cccnc2)C1)N1CCn2c1nc1ccccc12 (centres undefined)

1: 12.3 µM (active); 2: 14 µM (active)

###

STUDY SYSTEM: Microphthalmia-associated transcription factor (Homo sapiens, UniProt O75030)
Sequence (O75030 whole entry): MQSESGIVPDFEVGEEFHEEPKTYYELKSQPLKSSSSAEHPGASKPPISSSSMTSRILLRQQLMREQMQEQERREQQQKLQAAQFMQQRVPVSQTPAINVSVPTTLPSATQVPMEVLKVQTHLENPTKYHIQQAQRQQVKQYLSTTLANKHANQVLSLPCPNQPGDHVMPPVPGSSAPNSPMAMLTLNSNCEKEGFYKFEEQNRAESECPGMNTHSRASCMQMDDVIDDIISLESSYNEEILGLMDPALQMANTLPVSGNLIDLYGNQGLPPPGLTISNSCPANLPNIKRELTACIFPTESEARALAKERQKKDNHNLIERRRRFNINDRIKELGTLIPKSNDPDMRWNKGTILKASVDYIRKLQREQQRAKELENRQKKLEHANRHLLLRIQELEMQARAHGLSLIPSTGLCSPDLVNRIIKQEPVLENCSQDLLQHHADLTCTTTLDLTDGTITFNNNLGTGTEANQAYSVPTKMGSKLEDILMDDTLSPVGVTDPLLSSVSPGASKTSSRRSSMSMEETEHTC
EXPERIMENT: reducers of TRPM1 reporter luminescence, concentration series – cell-based, SK-MEL-5, cherry-picked, set 3, MITF inhibitor project, dose response (AID 493073);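 further: SK-MEL-5 melanoma cells with luciferase driven by the MITF target TRPM1 promoter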
Type: functional
The source made the active and inactive calls.
RESULT TYPE: AC50

Please review the entries below; each comes with its answer.
{"MOLECULE": "O=C(Nc1ccc2nc3n(c(=O)c2c1)CCCC3)c1cc([N+](=O)[O-])ccc1F", "AC50": "11.5 µM (active)"}
{"MOLECULE": "COc1cccc(-c2nnc3n2N=C(C(C)(C)C)CS3)c1", "AC50": "4.82 µM (active)"}
{"MOLECULE": "Cc1cc(NC(=O)c2ccc([N+](=O)[O-])o2)ccc1NC(=O)c1ccco1", "AC50": "7.8 µM (active)"}
{"MOLECULE": "COC(=O)C1=C(C)N(Cc2ccccc2)C(NCc2ccccc2)=N[C@H]1c1ccccc1", "AC50": "18 µM (active)"}
{"MOLECULE": "CN1C(=O)/C(=C/c2cccn2-c2ccc3ccccc3c2)C(=O)NC1=S", "AC50": "9.42 µM (active)"}

Provide reported AC50 for each item, in the same order as listed.
1. O=C(c1ccc([N+](=O)[O-])s1)N1CCCc2ccccc21
2. Cc1cc(C)c[n+](C2=C([N-]S(=O)(=O)c3cccs3)C(=O)c3ccccc3C2=O)c1
3. C#CC(=O)N(c1ccc(OC)cc1OC)C(C(=O)NC1CCCC1)c1cccs1 (stereo not given)
4. Cc1ccc2nc3cc([N+](=O)[O-])cc([N+](=O)[O-])c3cc2c1
5. CN(C)CCNC(=O)/C(=C/c1ccc(-c2ccc(Cl)cc2Cl)o1)NC(=O)c1ccccc1

1: 11.2 µM (active); 2: 2.95 µM (active); 3: 4.73 µM (active); 4: 8.46 µM (active); 5: 4.97 µM (active)
